Target: androgen receptor (AR) (Rattus norvegicus)
Construct: Ventral prostates were obtained form rats castrated 24 h prior to sacrifice; from tissue; host or cells: rat ventral prostate cytosol (castrated rats, charcoal-treated)
Assay: AR binding assay, competition with [3H]-mibolerone binding in rat ventral prostate cytosol
Details: test compound 2.0 μM, 1 nM [3H]-mibolerone, overnight at 0° C.
Procedure: Ventral prostates were obtained form rats castrated 24 h prior to sacrifice. Fresh prostate was minced and washed with Buffer A (Schilling and Liao, Prostate, 5:581-588, 1984). […] Cytosol androgen receptor concentration was determined as described (Isomaa et al., Endocrinology, 111: 833-843, 1982) with minor modifications. […] Bound radioactivity was determined by counting supernatant fractions in 1 ml of OptiPhase HiSafe3 or OptiPhase Supermix (PerkinElmer). […]
READOUT_LABEL: inhibition at 2 µM (%)
Form entry: value (%) — number only.

Cc1cc(NC(=O)C(C)(O)CNc2ccc(C#N)c(Cl)c2)ccc1[N+](=O)[O-] (stereo not shown) :: 95
COc1ccc(OCC(C)(O)C(=O)Nc2ccc([N+](=O)[O-])c(C)c2)cc1OC (stereo not shown) :: 89
CCOC(=O)c1ccc(OCC(C)(O)C(=O)Nc2ccc([N+](=O)[O-])c(C)c2)cc1 (stereo not shown) :: 98

// query inhibition at 2 µM value for entry Cc1cc([N+](=O)[O-])ccc1NC(=O)C(C)(O)COc1ccc(C#N)c(F)c1 (stereo not shown)
89

// query: Cc1cc(NC(=O)C(C)(O)COc2ccc(C#N)c(F)c2)ccc1[N+](=O)[O-] (stereo not shown)
97

// query: Cc1cc(NC(=O)C(C)(O)COc2ccc(Br)cc2)ccc1[N+](=O)[O-] (stereo not shown)
93

// query: CC(=O)Nc1ccc(OCC(C)(O)C(=O)Nc2ccc([N+](=O)[O-])c(C)c2)cc1 (stereo not shown)
101

---

Target: androgen receptor (AR) (Rattus norvegicus)
Construct: Ventral prostates were obtained form rats castrated 24 h prior to sacrifice; from tissue; host or cells: rat ventral prostate cytosol (castrated rats, charcoal-treated)
Experiment: AR binding assay, competition with [3H]-mibolerone binding in rat ventral prostate cytosol
Conditions: test compound 2.0 μM, 1 nM [3H]-mibolerone, overnight at 0° C.
Classification field: Criterion met = inhibition at 2 µM at or over 90%; Criterion not met = inhibition at 2 µM under 90%.

Test whether the compound Cc1cc(NC(=O)C(C)(O)COc2ccc(Cl)c(Cl)c2)ccc1[N+](=O)[O-] (centres unmarked) records inhibition at 2 µM of 90% or higher.
Criterion met

// query: Cc1cc(NC(=O)C(C)(O)COc2ccc(C(=O)c3ccc(Cl)cc3)cc2)ccc1[N+](=O)[O-] (centres unmarked)
Criterion not met

// query: CC(=O)Nc1ccc(OCC(C)(O)C(=O)Nc2ccc([N+](=O)[O-])c(C)c2)cc1F (centres unmarked)
Criterion met

// query: Cc1cc(NC(=O)C(C)(O)COc2ccc(Cl)c([N+](=O)[O-])c2)ccc1[N+](=O)[O-] (centres unmarked)
Criterion met

---

Molecular target: androgen receptor (AR) (Rattus norvegicus, UniProt P15207)
Construct: Ventral prostates were obtained form rats castrated 24 h prior to sacrifice; from tissue; host or cells: rat ventral prostate cytosol (castrated rats, charcoal-treated)
Sequence (P15207 whole entry S389L): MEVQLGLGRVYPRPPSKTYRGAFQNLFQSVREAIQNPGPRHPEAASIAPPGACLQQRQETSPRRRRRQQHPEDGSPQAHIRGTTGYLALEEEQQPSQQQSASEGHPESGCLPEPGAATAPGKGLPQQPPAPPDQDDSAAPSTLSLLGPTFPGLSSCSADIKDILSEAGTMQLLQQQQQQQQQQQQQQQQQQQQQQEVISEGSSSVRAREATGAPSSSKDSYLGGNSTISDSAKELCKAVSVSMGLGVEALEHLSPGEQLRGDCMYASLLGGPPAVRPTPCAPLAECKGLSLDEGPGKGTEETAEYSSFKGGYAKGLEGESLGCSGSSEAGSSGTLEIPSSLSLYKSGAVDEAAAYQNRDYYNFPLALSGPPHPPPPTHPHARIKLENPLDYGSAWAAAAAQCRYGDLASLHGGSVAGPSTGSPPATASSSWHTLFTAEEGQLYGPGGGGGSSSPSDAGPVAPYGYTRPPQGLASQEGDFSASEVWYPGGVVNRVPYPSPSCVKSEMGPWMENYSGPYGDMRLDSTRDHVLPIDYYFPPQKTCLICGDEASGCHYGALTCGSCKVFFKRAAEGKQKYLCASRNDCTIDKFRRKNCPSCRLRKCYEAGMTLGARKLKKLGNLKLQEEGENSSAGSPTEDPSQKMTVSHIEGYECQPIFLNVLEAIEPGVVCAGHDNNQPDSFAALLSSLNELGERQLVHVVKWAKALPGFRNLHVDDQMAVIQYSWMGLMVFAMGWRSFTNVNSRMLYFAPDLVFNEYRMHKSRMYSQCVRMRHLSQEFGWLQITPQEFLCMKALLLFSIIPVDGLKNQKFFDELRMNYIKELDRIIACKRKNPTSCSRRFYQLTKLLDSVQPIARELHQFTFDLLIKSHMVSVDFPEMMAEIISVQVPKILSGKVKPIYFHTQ
Assay: AR binding assay, competition with [3H]-mibolerone binding in rat ventral prostate cytosol
Settings: test compound 2.0 μM, 1 nM [3H]-mibolerone, overnight at 0° C.
inhibition at 2 µM listing for selected molecules.

Would you please look over these solved cases?
COc1ccc(OCC(C)(O)C(=O)Nc2ccc([N+](=O)[O-])c(C)c2)cc1 (stereo not shown) [Example 25] :: 98%
Cc1cc(NC(=O)C(C)(O)COc2cc(C)c(Cl)c(C)c2Cl)ccc1[N+](=O)[O-] (stereo not shown) [Example 29] :: 90%
Cc1ccc(OCC(C)(O)C(=O)Nc2ccc([N+](=O)[O-])c(C)c2)cc1 (stereo not shown) [Example 12] :: 101%

// query inhibition at 2 µM value for entry Cc1cc(NC(=O)C(C)(O)CNc2ccc(F)cc2)ccc1[N+](=O)[O-] (stereo not shown) [Example 52]
115%
